Test: recombinant UMI read abundance after kanamycin selection (control-corrected) (log10(CPM+1)); higher = more efficient recombination; extreme values may be limits of the assay; sequences stand for … in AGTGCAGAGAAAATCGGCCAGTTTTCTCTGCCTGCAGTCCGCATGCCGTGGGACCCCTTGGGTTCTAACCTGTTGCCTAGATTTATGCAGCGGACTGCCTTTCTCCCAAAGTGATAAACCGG…AGGTTGGTTTCACT; site = the 11-nt donor
property: recombinant UMI read abundance (log10)
Number only, no unit.

Below are worked cases with known answers.
>>> result("TAGTCGGCATGGACCGGTTTTCCCGGTAATCCGTATTTGAT (site TAGTCGGCTAT)")
0.387
>>> result("CAATTTCCATGGACCGGTTTTCCCGGTAATCCGTATTTGCT (site CAATTCCCTAG)")
0.761
>>> result("CTATCCTCATGGACCGGTTTTCCCGGTAATCCGTATTTGCT (site CGATCATCTAG)")
0
>>> result("ACTAGTGCATGGACCGGTTTTCCCGGTAATCCGTATTTGCT (site ACTAGTGCTAT)")
0.0101
>>> result("AGGAGGCCATGGACCGGTTTTCCCGGTAATCCGTATTTGCA (site AGGAAGACTTG)")
0
>>> result("AGAGATTCATGGACCGGTTTTCCCGGTAATCCGTATTTGGC (site AGAGATTCTGC)")
2.95
>>> result("GGGACATCATGGACCGGTTTTCCCGGTAATCCGTATTTGCT (site GGGACATCTAG)")
1.43
>>> result("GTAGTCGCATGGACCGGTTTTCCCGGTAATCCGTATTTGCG (site GTAGTCCCTCG)")
0.553

Proceed to the following item.
Consider the sequence shown here: GATGATCCATGGACCGGTTTTCCCGGTAATCCGTATTTGCT (site GATGATCCTAG) What is its recorded recombinant UMI read abundance (log10)?
0

---

Assay: recombinant barcode read abundance after kanamycin selection (control-corrected) (log10(CPM+1)); higher = more efficient recombination; sequences stand for … in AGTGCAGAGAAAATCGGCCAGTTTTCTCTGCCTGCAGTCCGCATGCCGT…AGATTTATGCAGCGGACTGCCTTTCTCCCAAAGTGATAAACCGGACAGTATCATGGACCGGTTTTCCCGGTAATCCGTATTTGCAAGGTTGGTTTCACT; site = the 11-nt target
Assign 1 to entries whose recombinant barcode read abundance (log10) meets or exceeds 0.3; assign 0 to the rest.

Field: example entries. Status: answers known.
>>> class_name("AAATCTGCTTGGGTTCTAACCTGTTGCCT (site AAATCTGCTAG)")
0
>>> class_name("ATGTGCTCTTGGGTTCTAACCTGTTGCCT (site ACGTGCTCTAG)")
0
>>> class_name("ACGAGAGCTTGGGTTCTAACCTGTTGCCT (site ACAAGAGCTAG)")
1

Could you please find out whether GGGGACTCTTGGGTTCTAACCTGTTGCAC (site GGGGACTCTGT) has recombinant barcode read abundance (log10) that meets 0.3 or exceeds it?
1

Identify whether the reported recombinant barcode read abundance (log10) of the following sequence is 0.3 or greater: GTATCCTCTTGGGTTCTAACCTGTTGCAT (site GTATGCTCTAC)
0

---

Test: recombinant UMI read abundance after kanamycin selection (control-corrected) (log10(CPM+1)); higher = more efficient recombination; extreme values may be limits of the assay; sequences stand for … in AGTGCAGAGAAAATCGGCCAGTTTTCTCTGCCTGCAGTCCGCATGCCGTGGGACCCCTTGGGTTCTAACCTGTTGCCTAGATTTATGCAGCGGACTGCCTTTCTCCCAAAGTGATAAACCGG…AGGTTGGTTTCACT; site = the 11-nt donor
// values below are reported recombinant UMI read abundance (log10)
Lab note: write the figure by itself, no unit.

Known recombinant UMI read abundance (log10) results, listed for orientation:
>>> result("CACGGACCATGGACCGGTTTTCCCGGTAATCCGTATTTGTT (site CACGGGCCTAA)")
0.387
>>> result("CGATCATCATGGACCGGTTTTCCCGGTAATCCGTATTTGCG (site CGATCATCTGG)")
0
>>> result("ACCGTGACATGGACCGGTTTTCCCGGTAATCCGTATTTGCA (site ACCGTGACTTG)")
2.4
>>> result("TACTCCTCATGGACCGGTTTTCCCGGTAATCCGTATTTGCC (site TACTCCTCTGG)")
2.63
>>> result("CCACGTCCATGGACCGGTTTTCCCGGTAATCCGTATTTGGT (site CCACGTCCTAC)")
0.0291

Give the measured recombinant UMI read abundance (log10) of CACTGGACATGGACCGGTTTTCCCGGTAATCCGTATTTGGT (site CACTGGACTAC) .
1.24

Fill in: recombinant UMI read abundance (log10) of AATTGGACATGGACCGGTTTTCCCGGTAATCCGTATTTGAC (site GATTGGACTGT) is ___
0.231

What value of recombinant UMI read abundance (log10) has been recorded for this entry: GCTAGAACATGGACCGGTTTTCCCGGTAATCCGTATTTGAG (site CCTAGAACTCT)
0.439

Name the recorded recombinant UMI read abundance (log10) for GCAGGCACATGGACCGGTTTTCCCGGTAATCCGTATTTGCA (site GCAGGCACTTG) .
2.39

Param item = TAATGAGCATGGACCGGTTTTCCCGGTAATCCGTATTTGGC (site TAATGAGCTTC) ; retrieve measured recombinant UMI read abundance (log10).
0.585

Looking for the measured recombinant UMI read abundance (log10) of GGAAGCACATGGACCGGTTTTCCCGGTAATCCGTATTTGTG (site GGAAGCACTCA) , can you help?
1.4

Form field: reported recombinant UMI read abundance (log10) of TTCGAGCCATGGACCGGTTTTCCCGGTAATCCGTATTTGAC (site TTCGAGCCTGT)
0

For the sequence shown here, AAGCACGCATGGACCGGTTTTCCCGGTAATCCGTATTTGTG (site AAGCACGCTCC) , give the reported recombinant UMI read abundance (log10).
0

Given the sequence AGGCAGGCATGGACCGGTTTTCCCGGTAATCCGTATTTGCA (site AGGCAGGCTTG) , what is its reported recombinant UMI read abundance (log10)?
2.63

Item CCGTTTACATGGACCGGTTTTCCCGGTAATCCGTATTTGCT (site CCTTTTACTAG) has what recorded recombinant UMI read abundance (log10)?
0

Look up recombinant UMI read abundance (log10): GAATGCCCATGGACCGGTTTTCCCGGTAATCCGTATTTGCA (site GAATGTCCTTG)
0

Could you share which recombinant UMI read abundance (log10) value was measured for CACTAGGCATGGACCGGTTTTCCCGGTAATCCGTATTTGGA (site CACTGGGCTTC) ?
0.0136

// lookup recombinant UMI read abundance (log10) for AATCTAACATGGACCGGTTTTCCCGGTAATCCGTATTTGCT (site AATCTAACTAG)
0

---

// reported recombinant UMI read abundance (log10) for each item listed
Assay: recombinant UMI read abundance after kanamycin selection (control-corrected) (log10(CPM+1)); higher = more efficient recombination; extreme values may be limits of the assay; sequences stand for … in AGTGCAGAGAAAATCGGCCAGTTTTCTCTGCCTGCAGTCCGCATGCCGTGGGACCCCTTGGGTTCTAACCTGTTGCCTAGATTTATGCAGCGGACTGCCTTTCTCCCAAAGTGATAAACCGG…AGGTTGGTTTCACT; site = the 11-nt donor
Give the figure only, with no unit attached.

These solved cases illustrate the format of a correct answer.
>>> result("GAAGTATCATGGACCGGTTTTCCCGGTAATCCGTATTTGCA (site GAAGTATCTTG)")
2.6
>>> result("AACCGTCCATGGACCGGTTTTCCCGGTAATCCGTATTTGTT (site AACCGTCCTAG)")
0.794
>>> result("CGCTTTGCATGGACCGGTTTTCCCGGTAATCCGTATTTGGT (site CGCTTTGCTAC)")
1.08
>>> result("AACTGTCCATGGACCGGTTTTCCCGGTAATCCGTATTTGAT (site AACAGTCCTAT)")
0.00914

recombinant UMI read abundance (log10) lookup needed for TTAGTCGCATGGACCGGTTTTCCCGGTAATCCGTATTTGCG (site GTAGTCGCTCG) , thanks.
0.00638

# query: recombinant UMI read abundance (log10) of entry CGACGAGCATGGACCGGTTTTCCCGGTAATCCGTATTTGGG (site ACGTCGACTTT)
0.00438

Record request: recombinant UMI read abundance (log10) value, item CTCTGCACATGGACCGGTTTTCCCGGTAATCCGTATTTGCT (site CTCTGCACTAG)
2.1

Which recombinant UMI read abundance (log10) is listed for ACTAGCTCATGGACCGGTTTTCCCGGTAATCCGTATTTGTT (site ACTAGCTCTAA) ?
0.346

Look at this sequence and give its reported recombinant UMI read abundance (log10). GTTTGAGCATGGACCGGTTTTCCCGGTAATCCGTATTTGCA (site GTTGGAGCTTG)
1.55

Returns the measured recombinant UMI read abundance (log10) for the input sequence. Input: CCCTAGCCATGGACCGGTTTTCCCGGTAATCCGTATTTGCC (site CCCTAGCCTGC)
0

Dear colleague, I am looking for the recorded recombinant UMI read abundance (log10) of the following sequence: CCGTATACATGGACCGGTTTTCCCGGTAATCCGTATTTGAT (site CCGTATACTAT)
0.449

Bench note: what recombinant UMI read abundance (log10) did CAATCTCCATGGACCGGTTTTCCCGGTAATCCGTATTTGCC (site CAATCTCCTGG) show?
0

# input sequence: TCTAGGCCATGGACCGGTTTTCCCGGTAATCCGTATTTGGA (site TCTAGGCCTTC) ; wanted: its recombinant UMI read abundance (log10)
0.0125

Quick check: recombinant UMI read abundance (log10) of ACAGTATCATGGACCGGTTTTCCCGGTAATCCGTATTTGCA (site ATAGTATCTTG) ?
2.04

Can you look up the measured recombinant UMI read abundance (log10) of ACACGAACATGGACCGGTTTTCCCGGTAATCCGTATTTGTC (site ACGCGAACTGA) for me?
0

Report recombinant UMI read abundance (log10) for GTTACTGCATGGACCGGTTTTCCCGGTAATCCGTATTTGCC (site GGTACTGCTGG) please.
0.914
